Overview of reported gamma-GTP across a group of compounds:
Organism: Rattus norvegicus
assay name: Open TG-GATES - Regimen: Single
Type: toxicity, organism-based, Sprague-Dawley
Parameters: regimen Single, gender Male, age 6 weeks
reported conditions: in vivo, po, 0 mg/kg, 3 h, tissue Plasma, route gavage, dose level Control
For clarity, give the value followed by its unit.

Worked set:
The value of gamma-GTP measured for the compound CCOc1ccc(NC(=O)CC(C)O)cc1 (stereo not given) [BUCETIN] turned out to be 2 IU/L

The value of gamma-GTP measured for the compound COc1ccc2[nH]c([S+]([O-])Cc3ncc(C)c(OC)c3C)nc2c1 (stereo not given) [OMEPRAZOLE] turned out to be 1 IU/L

The value of gamma-GTP measured for the compound CN(C)CCCN1c2ccccc2CCc2ccccc21 [IMIPRAMINE] turned out to be 1.6 IU/L

The value of gamma-GTP measured for the compound Cc1ccc(C)c(OCCCC(C)(C)C(=O)O)c1 [GEMFIBROZIL] turned out to be 1 IU/L

The value of gamma-GTP measured for the compound COC1=CC(=O)C[C@@H](C)[C@]12Oc1c(Cl)c(OC)cc(OC)c1C2=O [GRISEOFULVIN] turned out to be 1.4 IU/L

The value of gamma-GTP measured for the compound O=C(CCCN1CCC(O)(c2ccc(Cl)cc2)CC1)c1ccc(F)cc1 [HALOPERIDOL] turned out to be 1.4 IU/L

The value of gamma-GTP measured for the compound CC(C)OC(=O)C(C)(C)Oc1ccc(C(=O)c2ccc(Cl)cc2)cc1 [FENOFIBRATE] turned out to be 1.4 IU/L

The value of gamma-GTP measured for the compound CN(C)CCN(Cc1cccs1)c1ccccn1 turned out to be 1 IU/L

Others:
The value of gamma-GTP measured for the compound COc1cc2c(c(OC)c1OC)-c1ccc(OC)c(=O)cc1[C@@H](NC(C)=O)CC2 [COLCHICINE] turned out to be 1.4 IU/L

The value of gamma-GTP measured for the compound NC(N)=Nc1nc(CSCCC(N)=NS(N)(=O)=O)cs1 [FAMOTIDINE] turned out to be 1.4 IU/L

Numbers sourced from ChEMBL document CHEMBL3885861.
